The following binders are listed with their measured binding signal values.
biological target: dAsCas12a WT (Acidaminococcus sp., UniProt U2UMQ6 1-1307, D908A;E993A;D1235A); experiment: Spec-seq (native PAGE EMSA with sequencing of bound and unbound); 25 mM Tris-HCl pH 7.4, 150 mM KCl, 5 mM MgCl2, 10% glycerol, 1 mM DTT, 40 ng/uL salmon sperm DNA; 400 nM Cas12a, 480 nM crRNA, 50 nM library, 37 C 1 h; native P; high values mean tight binding

| binder | binding signal |
| --- | --- |
| ATTT (dsDNA) DNA 1: GCTATCTAGTGCTCAGTACGCACTGATTTAGGAAACTTCTGGCAGGACCAGGTCATGAGATCGGAAGAGCACACGTCTGAACTCCAGTCA DNA 2: TGACTGGAGTTCAGACGTGTGCTCTTCCGATCTCATGACCTGGTCCTGCCAGAAGTTTCCTAAATCAGTGCGTACTGAGCACTAGATAGC RNA: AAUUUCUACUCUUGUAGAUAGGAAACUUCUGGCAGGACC | -8.27 lnKA |
| TTGC (dsDNA) DNA 1: GCTATCTAGTGCTCAGTACGCACTGTTGCAGGAAACTTCTGGCAGGACCAGGTCATGAGATCGGAAGAGCACACGTCTGAACTCCAGTCA DNA 2: TGACTGGAGTTCAGACGTGTGCTCTTCCGATCTCATGACCTGGTCCTGCCAGAAGTTTCCTGCAACAGTGCGTACTGAGCACTAGATAGC RNA: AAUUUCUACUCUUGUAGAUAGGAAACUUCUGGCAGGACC | -8.28 lnKA |
| TCTA (dsDNA) DNA 1: GCTATCTAGTGCTCAGTACGCACTGTCTAAGGAAACTTCTGGCAGGACCAGGTCATGAGATCGGAAGAGCACACGTCTGAACTCCAGTCA DNA 2: TGACTGGAGTTCAGACGTGTGCTCTTCCGATCTCATGACCTGGTCCTGCCAGAAGTTTCCTTAGACAGTGCGTACTGAGCACTAGATAGC RNA: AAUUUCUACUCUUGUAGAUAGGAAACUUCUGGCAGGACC | -6.18 lnKA |
